Test system: 782815-120-R-J1-PDC complex spheroid viability
Procedure Text: Anticancer human tumor 782815-120-R-J1-PDC patient-derived colon adenocarcinoma cell line growth inhibition [RAS]
Condition Description: second compound 0.1 µM; first compound 1 µM; stronger effect = lower value
Source text: RAS pathway inhibitors in Combinations in Complex Spheroids A high-throughput screen of multi-cell type tumor spheroids was designed to identify active combinations of RAS pathway inhibitors and targeted small molecules. Complex spheroids include a stromal component modeled by human endothelial cells (HUVEC) and fibroblasts modeled by human mesenchymal stem cells (MSCs). […] Compounds. […] If the clinical Cmax for an agent had not been determined, the highest concentration tested was 10 microM. […]
Parameter Measured: viability, T/C (%)
Please give a number only; it is taken to be in %.

C=CC(=O)N1CCN(c2nc(OCC3CCCN3C)nc3c(F)c(-c4nc(N)cc(C)c4C(F)(F)F)c(Cl)cc23)C(C)C1 (centres undefined) + C#Cc1c(F)ccc2cc(O)cc(-c3ncc4c(N5CC6CCC(C5)N6)nc(OCC56CCCN5CC(F)C6)nc4c3F)c12 ... 101
CC1(O)CCCC1n1c(=O)c(C(F)F)cc2cnc(NC3CCN(S(C)(=O)=O)CC3)nc21 (centres undefined) + C#Cc1c(F)ccc2cc(O)cc(-c3ncc4c(N5CC6CCC(C5)N6)nc(OCC56CCCN5CC(F)C6)nc4c3F)c12 ... 62.8
CC(=O)OC12COC1CC(O)C1(C)C(=O)C(O)C3=C(C)C(OC(=O)C(O)C(NC(=O)OC(C)(C)C)c4ccccc4)CC(O)(C(OC(=O)c4ccccc4)C21)C3(C)C (centres undefined) + C#Cc1c(F)ccc2cc(O)cc(-c3ncc4c(N5CC6CCC(C5)N6)nc(OCC56CCCN5CC(F)C6)nc4c3F)c12 ... 21.6
CC(C)NCC(C(=O)N1CCN(c2ncnc3c2C(C)CC3O)CC1)c1ccc(Cl)cc1 (centres undefined) + C#Cc1c(F)ccc2cc(O)cc(-c3ncc4c(N5CC6CCC(C5)N6)nc(OCC56CCCN5CC(F)C6)nc4c3F)c12 ... 98.1
C=CC(=O)Nc1cc(Nc2nccc(-c3cn(C)c4ccccc34)n2)c(OC)cc1N(C)CCN(C)C + C#Cc1c(F)ccc2cc(O)cc(-c3ncc4c(N5CC6CCC(C5)N6)nc(OCC56CCCN5CC(F)C6)nc4c3F)c12 ... 89.5

-- ask Tell me the measured viability, T/C of CCN1CCN(Cc2ccc(Nc3ncc(F)c(-c4cc(F)c5nc(C)n(C(C)C)c5c4)n3)nc2)CC1 + C=CC(=O)N1CCN(c2nc(OCC3CCCN3C)nc3c(F)c(-c4nc(N)cc(C)c4C(F)(F)F)c(Cl)cc23)C(C)C1 , please.
-- reply 116

-- ask I'd like to know its viability, T/C. The compound in question is CC(=O)OC12COC1CC(O)C1(C)C(=O)C(O)C3=C(C)C(OC(=O)C(O)C(NC(=O)OC(C)(C)C)c4ccccc4)CC(O)(C(OC(=O)c4ccccc4)C21)C3(C)C (centres undefined) + C=CC(=O)N1CCN(c2nc(OCC3CCCN3C)nc3c(F)c(-c4nc(N)cc(C)c4C(F)(F)F)c(Cl)cc23)C(C)C1
-- reply 22.9

-- ask Please look up its viability, T/C: CC(Nc1ccc2c(c1)OCCn1cc(N3C(=O)OCC3C(F)F)nc1-2)C(N)=O (centres undefined) + C#Cc1c(F)ccc2cc(O)cc(-c3ncc4c(N5CC6CCC(C5)N6)nc(OCC56CCCN5CC(F)C6)nc4c3F)c12
-- reply 90

-- ask Fill in: viability, T/C of NC1c2ccccc2OC12CCN(c1cnc3c(N4CCCc5ncccc54)n[nH]c3n1)CC2 (centres undefined) + C=CC(=O)N1CCN(c2nc(OCC3CCCN3C)nc3c(F)c(-c4nc(N)cc(C)c4C(F)(F)F)c(Cl)cc23)C(C)C1 is ___
-- reply 107

====

Test system: 782815-120-R-J1-PDC complex spheroid viability
Procedure Text: Anticancer human tumor 782815-120-R-J1-PDC cell line growth inhibition [RAS];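 further: spheroids exposed to compounds for 7 days before reading; 100% = DMSO vehicle control viability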
Condition Description: second compound 0.003 µM; first compound 0.00316 µM; stronger effect = lower value
Description: RAS pathway inhibitors in Combinations in Complex Spheroids A high-throughput screen of multi-cell type tumor spheroids was designed to identify active combinations of RAS pathway inhibitors and targeted small molecules. Complex spheroids include a stromal component modeled by human endothelial cells (HUVEC) and fibroblasts modeled by human mesenchymal stem cells (MSCs). […] Compounds. […] If the clinical Cmax for an agent had not been determined, the highest concentration tested was 10 microM. […]
Let's look at some compounds and their measured viability, T/C.
Use % as the unit, but write only the number.

Before answering, review these 3 worked examples.
CC(C)n1nc(-c2ccc3oc(N)nc3c2)c2c(N)ncnc21 + CCn1c(-c2cc(N3CCN(C)CC3)cnc2C(C)OC)c2c3cc(ccc31)-c1csc(n1)CC(NC(=O)C1CC1C)C(=O)N1CCCC(N1)C(=O)OCC(C)(C)C2 ... 59.6
CCN1CCN(Cc2ccc(Nc3ncc(F)c(-c4cc(F)c5nc(C)n(C(C)C)c5c4)n3)nc2)CC1 + CCn1c(-c2cccnc2C(C)OC)c2c3cc(ccc31)N1CCOC(CC(NC(=O)C(C(C)C)N(C)C(=O)C3(F)CCN(C(=O)C#CC(C)(C)N(C)C)CC3)C(=O)N3CCCC(N3)C(=O)OCC(C)(C)C2)C1 ... 95
C=CC(=O)Nc1cc(Nc2nccc(-c3cn(C)c4ccccc34)n2)c(OC)cc1N(C)CCN(C)C + CCn1c(-c2cccnc2C(C)OC)c2c3cc(ccc31)N1CCOC(CC(NC(=O)C(C(C)C)N(C)C(=O)C3(F)CCN(C(=O)C#CC(C)(C)N(C)C)CC3)C(=O)N3CCCC(N3)C(=O)OCC(C)(C)C2)C1 ... 102

-- ask Reported viability, T/C for C=CC(=O)Nc1cc(Nc2nccc(-c3cn(C)c4ccccc34)n2)c(OC)cc1N(C)CCN(C)C + CCn1c(-c2cc(N3CCN(C)CC3)cnc2C(C)OC)c2c3cc(ccc31)-c1csc(n1)CC(NC(=O)C1CC1C)C(=O)N1CCCC(N1)C(=O)OCC(C)(C)C2 : what is it?
-- reply 59.3

====

Tested on: 782815-120-R-J1-PDC complex spheroid viability
Procedure Text: Anticancer human tumor 782815-120-R-J1-PDC cell line growth inhibition [RAS];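 further: spheroids exposed to compounds for 7 days before reading; 100% = DMSO vehicle control viability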
Condition Description: second compound 0.00949 µM; first compound 0.3 µM; stronger effect = lower value
Recorded measurements of viability, T/C, one per entry
Quick note: give the figure in %, leave out the unit.

Below, 2 compounds whose answers are already recorded.
CC1(C)CCC(Nc2ncc(C(F)(F)F)c(-c3c[nH]c4c(P(C)(C)=O)c(C#N)ccc34)n2)CN1 (centres undefined) + CCn1c(-c2cc(N3CCN(C)CC3)cnc2C(C)OC)c2c3cc(ccc31)-c1csc(n1)CC(NC(=O)C1CC1C)C(=O)N1CCCC(N1)C(=O)OCC(C)(C)C2 ... 23.6
CCc1c2c(nc3ccc(O)cc13)-c1cc3c(c(=O)n1C2)COC(=O)[C@]3(O)CC + CCn1c(-c2cccnc2C(C)OC)c2c3cc(ccc31)N1CCOC(CC(NC(=O)C(C(C)C)N(C)C(=O)C3(F)CCN(C(=O)C#CC(C)(C)N(C)C)CC3)C(=O)N3CCCC(N3)C(=O)OCC(C)(C)C2)C1 ... 1.64

-- ask Please look up its viability, T/C: CCc1c2c(nc3ccc(O)cc13)-c1cc3c(c(=O)n1C2)COC(=O)[C@]3(O)CC + CCn1c(-c2cc(N3CCN(C)CC3)cnc2C(C)OC)c2c3cc(ccc31)-c1csc(n1)CC(NC(=O)C1CC1C)C(=O)N1CCCC(N1)C(=O)OCC(C)(C)C2
-- reply 1.84

-- ask Can you look up the measured viability, T/C of CC1(C)CCC(Nc2ncc(C(F)(F)F)c(-c3c[nH]c4c(P(C)(C)=O)c(C#N)ccc34)n2)CN1 (centres undefined) + CCn1c(-c2cccnc2C(C)OC)c2c3cc(ccc31)N1CCOC(CC(NC(=O)C(C(C)C)N(C)C(=O)C3(F)CCN(C(=O)C#CC(C)(C)N(C)C)CC3)C(=O)N3CCCC(N3)C(=O)OCC(C)(C)C2)C1 for me?
-- reply 44.6

====

System: 782815-120-R-J1-PDC complex spheroid viability
Procedure Text: Anticancer human tumor 782815-120-R-J1-PDC cell line growth inhibition [RAS];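 further: spheroids exposed to compounds for 7 days before reading; 100% = DMSO vehicle control viability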
Condition Description: second compound 0.003 µM; first compound 10 µM; stronger effect = lower value
Parameter Measured: viability, T/C (%)
// units = %; emit number, no label

CC(Nc1ccc2c(c1)OCCn1cc(N3C(=O)OCC3C(F)F)nc1-2)C(N)=O (configuration not stated) + CCn1c(-c2cccnc2C(C)OC)c2c3cc(ccc31)N1CCOC(CC(NC(=O)C(C(C)C)N(C)C(=O)C3(F)CCN(C(=O)C#CC(C)(C)N(C)C)CC3)C(=O)N3CCCC(N3)C(=O)OCC(C)(C)C2)C1 ... 97.5

-- ask Find the recorded viability, T/C belonging to C[C@@H](NC(=O)c1ncnc(N)c1Cl)c1ncc(C(=O)Nc2cc(C(F)(F)F)c(Cl)cn2)s1 + CCn1c(-c2cccnc2C(C)OC)c2c3cc(ccc31)N1CCOC(CC(NC(=O)C(C(C)C)N(C)C(=O)C3(F)CCN(C(=O)C#CC(C)(C)N(C)C)CC3)C(=O)N3CCCC(N3)C(=O)OCC(C)(C)C2)C1 and report it.
-- reply 51.9

Source: PubChem BioAssay AID2060887
